System: MDA-MB-468 breast
Experiment: NCI tumour cell line growth inhibition, 48 h
Think of 9 µM as a floor: if TGI stands on it or above, it is Condition met; beneath it, Condition not met.

>>> category_label("O=C(Nc1ccc(-c2nc3cc4ccccc4cc3[nH]2)cc1)c1cccc(Br)c1")
"Condition not met"
>>> category_label("O=C(Nc1ccc(Cl)c([N+](=O)[O-])c1)Nc1nc2ccccc2s1")
"Condition met"
>>> category_label("CCN(CC)c1ccc(/C=N/NC(=O)c2ccc(S(N)(=O)=O)cc2)cc1")
"Condition not met"
>>> category_label("COc1ccc(CN2C(=O)/C(=C\\c3cc(OC)c(OC)c(OC)c3)c3cc(OC)ccc32)cc1")
"Condition not met"
>>> category_label("CCc1ccc(-c2nnc(COc3ccc(-c4nc5ccc(C)cc5[nH]4)cc3OC)o2)cc1")
"Condition met"
>>> category_label("CC(=O)Oc1ccccc1C(=O)Nc1ccc(C(=O)/C=C/c2ccncc2)cc1")
"Condition met"
>>> category_label("OC(c1cc2cc(Br)ccc2c2cc(Br)ccc12)C1CCCCN1 (stereo not given)")
"Condition not met"
>>> category_label("CC(C)C[C@H](NC(=O)[C@H](Cc1ccccc1)n1ccc(N2CCCCC2)cc1=O)B(O)O")
"Condition not met"
>>> category_label("Cc1ccc(S(=O)ON2CCC(C(=O)O)(c3ccccc3)CC2)cc1 (stereo not given)")
"Condition met"
